Tested on: FaDu (pharynx, squamous cell carcinoma) cells
measurement protocol: Cell viability assay, CellTiter-Glo (Example 21)
Assay type: cell-based, human
reported conditions: 3.7 nM, 72 h treatment
# FaDu (pharynx, squamous cell carcinoma) cell viability (% of control) listing for each entry below

Example compounds with recorded FaDu (pharynx, squamous cell carcinoma) cell viability (% of control):
# compound, recorded result
rows = [
    ("O=C1C2=C(CCN(Cc3cccc(F)c3)C2)N2CCN=C2N1Cc1ccc(F)cc1 [I/6, reference compound]", "97.9 ± 3.9 % of control"),
    ("[N-]=[N+]=Nc1cccc(CN2CCC3=C(C2)C(=O)N(Cc2ccc(Cl)cc2)C2=NCCN23)c1", "100.0 ± 6.2 % of control"),
    ("O=C1C2=C(CCN(Cc3cc(F)cc(F)c3)C2)N2CCN=C2N1Cc1ccc(Cl)cc1", "45.6 ± 20.7 % of control"),
    ("O=C1C2=C(CCN(Cc3cc(F)cc(F)c3)C2)N2CCN=C2N1Cc1ccc(F)cc1", "80.1 ± 13.3 % of control"),
    ("O=C1C2=C(CCN(Cc3cccc(F)c3)C2)N2CCN=C2N1Cc1ccc(C(F)(F)F)cc1 [I/3, reference compound]", "101.6 ± 3.4 % of control"),
]

I would be grateful if you could share the reported FaDu (pharynx, squamous cell carcinoma) cell viability (% of control) for [N-]=[N+]=Nc1ccc(CN2C(=O)C3=C(CCN(Cc4cc(F)cc(F)c4)C3)N3CCN=C23)cc1 .
98.6 ± 1.9 % of control

I would be grateful if you could share the reported FaDu (pharynx, squamous cell carcinoma) cell viability (% of control) for [N-]=[N+]=Nc1cccc(CN2CCC3=C(C2)C(=O)N(Cc2ccc(C(F)(F)F)cc2)C2=NCCN23)c1 .
97.7 ± 3.9 % of control

I would be grateful if you could share the reported FaDu (pharynx, squamous cell carcinoma) cell viability (% of control) for O=C1C2=C(CCN(Cc3ccccc3)C2)N2CCN=C2N1Cc1ccc(C(F)(F)F)cc1 [I/1, reference compound] .
102.4 ± 7.4 % of control
